test system: SN12C renal; test: NCI-60 one-dose screen, 48 h (100 = growth as untreated, 0 = no growth, -100 = all killed); settings: 10 µM unless noted
About 83,000 compounds went through this panel and 20% of them were active in at least one assay; those are over-represented in the sample as a whole. Active and inactive are the calls of the source. How the source made its calls: active means growth percent below 10; inactive means the rest.
Entries and their measured growth follow.
property_name: growth

In [3]: df
Out[3]:
                                    molecule              recorded_value
 0   N=C(N)c1ccc(OCCSCCOc2ccc(C(=N)N)cc2)cc1            37.4% (inactive)
 1  Cc1c(C(C)(C)O)cn2ncnc(Oc3ccc(NC(=O)Nc4ccc(Cl)c(C(F)(F)F)c4)c(F)c3)c12            57.6% (inactive)
 2  CCOC(=O)c1c(C)nc2c(c1N)C(=O)C(=O)N2Cc1ccc(OC)cc1            82.6% (inactive)
 3   Nc1nc(N(Cc2ccccc2)c2ccccc2)c2cn[nH]c2n1            85.8% (inactive)
 4  C=C1C(=O)O[C@@H]2C3C(=C(C)CC[C@@H]12)CC1O[C@]13C (stereo partly drawn)  86.6% [6.75 µM] (inactive)
 5  O=C(Oc1ccc2c(c1)sc1nc(-c3ccccc3)[nH]c(=O)c12)C(F)(F)F              32% (inactive)
 6  Cc1ccc2c(c1)sc1nc(-c3c[nH]c4ccccc34)c(Nc3ccccc3)n12             102% (inactive)
 7  C1CCC(N2CN3c4nonc4N4CN(C5CCCCC5)CN5c6nonc6N(C2)C3C45)CC1 (stereo not drawn)            92.4% (inactive)
 8              Cc1sc2nc(NCCN)[nH]c(=O)c2c1C              90% (inactive)
 9  CCn1cc(C(=O)O)c(=O)c2cc(F)c(N3CCN(CC(=O)Nc4ccccc4)C(C)C3)c(F)c21 (stereo not drawn)             103% (inactive)
10  CCCCCc1ccc(S(=O)(=O)Nc2ccc3nc(N)oc3c2)cc1            58.8% (inactive)
11  N#Cc1c(-c2ccccc2)nc2c(c(-c3ccccc3)nn2-c2ccccc2)c1-c1ccc(N2CCCCC2)cc1            99.4% (inactive)
12  N#Cc1c(-c2ccc(Br)cc2)nc2c(N=Nc3ccc(S(N)(=O)=O)cc3)c(N)nn2c1N            45.6% (inactive)
13  CNC(=O)Nc1ccc(-c2ccc3ncnc(Nc4cccc(Cl)c4)c3c2)cc1            62.3% (inactive)
14  COc1cc(/C=C/C(=O)c2cc(OC)c(OC)c(OC)c2)ccc1Oc1nc2c(c(=O)n(C)c(=O)n2C)n1C            11.6% (inactive)
15  CCN1CCN(CCNc2nccc(-c3c(-c4ccc(F)c(O)c4)nc4occn34)n2)S1(=O)=O            33.9% (inactive)
16  N#Cc1ccccc1-c1ccc(CN2C(=O)S/C(=C\c3ccc(Br)cc3)C2=O)cc1            91.6% (inactive)
17  COc1ccc2c(c1)oc1c(C)c3c(c(C)c12)C(=O)N(CCOS(C)(=O)=O)C3=O              94% (inactive)

// data source = PubChem BioAssay (NCI)
